- assayed-system: Son of sevenless homolog 1 (Homo sapiens, UniProt Q07889)
- Sequence (Q07889 whole entry, the tested form may be a part): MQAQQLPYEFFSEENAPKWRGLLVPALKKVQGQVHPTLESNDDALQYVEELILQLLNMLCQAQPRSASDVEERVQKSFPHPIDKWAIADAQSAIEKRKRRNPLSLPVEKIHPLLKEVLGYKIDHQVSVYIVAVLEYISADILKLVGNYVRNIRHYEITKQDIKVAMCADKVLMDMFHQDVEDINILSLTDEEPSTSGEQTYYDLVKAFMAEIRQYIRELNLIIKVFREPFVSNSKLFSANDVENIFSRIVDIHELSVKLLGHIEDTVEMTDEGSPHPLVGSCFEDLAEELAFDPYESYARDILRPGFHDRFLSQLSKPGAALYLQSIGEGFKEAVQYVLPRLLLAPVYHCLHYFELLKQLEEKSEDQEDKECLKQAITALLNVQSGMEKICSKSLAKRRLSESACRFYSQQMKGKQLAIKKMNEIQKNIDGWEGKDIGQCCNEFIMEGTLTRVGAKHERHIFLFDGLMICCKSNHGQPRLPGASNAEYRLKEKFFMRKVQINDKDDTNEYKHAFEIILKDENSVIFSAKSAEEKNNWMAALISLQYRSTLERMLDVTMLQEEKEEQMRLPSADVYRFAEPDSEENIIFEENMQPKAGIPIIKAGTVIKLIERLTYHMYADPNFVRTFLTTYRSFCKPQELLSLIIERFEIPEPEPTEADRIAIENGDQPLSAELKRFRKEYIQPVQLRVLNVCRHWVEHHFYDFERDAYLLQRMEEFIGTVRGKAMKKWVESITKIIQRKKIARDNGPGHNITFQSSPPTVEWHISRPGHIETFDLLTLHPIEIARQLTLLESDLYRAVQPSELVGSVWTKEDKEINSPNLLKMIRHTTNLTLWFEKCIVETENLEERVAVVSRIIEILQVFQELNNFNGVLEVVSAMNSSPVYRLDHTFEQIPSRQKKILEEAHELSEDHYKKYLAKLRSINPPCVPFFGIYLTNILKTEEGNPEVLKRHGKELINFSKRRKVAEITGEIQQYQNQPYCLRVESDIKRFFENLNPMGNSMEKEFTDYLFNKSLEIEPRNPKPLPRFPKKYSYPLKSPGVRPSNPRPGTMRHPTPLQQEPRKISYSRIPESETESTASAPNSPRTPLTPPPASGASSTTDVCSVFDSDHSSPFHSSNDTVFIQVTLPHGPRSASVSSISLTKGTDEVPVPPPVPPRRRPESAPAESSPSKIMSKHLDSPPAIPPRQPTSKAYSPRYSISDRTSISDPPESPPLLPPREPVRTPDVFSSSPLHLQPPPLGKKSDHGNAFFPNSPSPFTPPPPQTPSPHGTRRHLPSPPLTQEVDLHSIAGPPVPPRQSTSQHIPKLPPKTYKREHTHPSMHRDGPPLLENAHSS
- assay-remarks: Binding affinity to GST-tagged human SOS1 (564 to 1049 residues) expressed in Escherichia coli BL21 (DE3) cells assessed as binary complex formation by measuring dissociation constant incubated for 15 mins by fluorescence polarization-based displacement assay
pKd: −log10 of the molar value.
readout: pKd

1) COc1cc2nc(C)nc(N[C@H](C)c3cc(N)cc(C(F)(F)F)c3)c2cc1C1CCN(C(=O)COCCCC(=O)N[C@H](C(=O)N2C[C@H](O)C[C@H]2C(=O)N[C@@H](C)c2ccc(-c3scnc3C)cc2)C(C)(C)C)CC1 | 6.81
2) COc1cc2nc(C)nc(N[C@H](C)c3cc(N)cc(C(F)(F)F)c3)c2cc1C1CCN(C(=O)CCCCCCC(=O)N[C@H](C(=O)N2C[C@H](O)C[C@H]2C(=O)N[C@@H](C)c2ccc(-c3scnc3C)cc2)C(C)(C)C)CC1 | 7.10
3) COc1cc2nc(C)nc(NC(C)c3cc(N)cc(C(F)(F)F)c3)c2cc1C1CCN(C(C)=O)CC1 (stereo not drawn) | 7.57

* * *

- assayed-system: UniProtKB Q07889
- assay-remarks: Binding affinity to GST-tagged human SOS1 (564 to 1049 residues) expressed in Escherichia coli BL21 (DE3) cells assessed as ternary complex formation by measuring dissociation constant incubated for 15 mins in the presence of 6His tagged human VCB by fluorescence polarization-based displacement assay
Reported Kd values are given for each entry in this list.
readout: Kd (nM)

1) COc1cc2nc(C)nc(N[C@H](C)c3cc(N)cc(C(F)(F)F)c3)c2cc1C1CCN(C(=O)CCCCC(=O)N[C@H](C(=O)N2C[C@H](O)C[C@H]2C(=O)N[C@@H](C)c2ccc(-c3scnc3C)cc2)C(C)(C)C)CC1 | 26.7
2) COc1cc2nc(C)nc(NC(C)c3cc(N)cc(C(F)(F)F)c3)c2cc1C1CCN(C(C)=O)CC1 (stereo not drawn) | 26.5
3) COc1cc2nc(C)nc(N[C@H](C)c3cc(N)cc(C(F)(F)F)c3)c2cc1C1CCN(C(=O)COCCCC(=O)N[C@H](C(=O)N2C[C@H](O)C[C@H]2C(=O)N[C@@H](C)c2ccc(-c3scnc3C)cc2)C(C)(C)C)CC1 | 17.4
4) COc1cc2nc(C)nc(N[C@H](C)c3cc(N)cc(C(F)(F)F)c3)c2cc1C1CCN(C(=O)CCCOCC(=O)N[C@H](C(=O)N2C[C@H](O)C[C@H]2C(=O)N[C@@H](C)c2ccc(-c3scnc3C)cc2)C(C)(C)C)CC1 | 27.8
5) COc1cc2nc(C)nc(N[C@H](C)c3cc(N)cc(C(F)(F)F)c3)c2cc1C1CCN(CCCCCCC(=O)N[C@H](C(=O)N2C[C@H](O)C[C@H]2C(=O)N[C@@H](C)c2ccc(-c3scnc3C)cc2)C(C)(C)C)CC1 | 16.3
6) COc1cc2nc(C)nc(N[C@H](C)c3cc(N)cc(C(F)(F)F)c3)c2cc1C1CCN(C(=O)CCOCCC(=O)N[C@H](C(=O)N2C[C@H](O)C[C@H]2C(=O)N[C@@H](C)c2ccc(-c3scnc3C)cc2)C(C)(C)C)CC1 | 33.6
7) COc1cc2nc(C)nc(N[C@H](C)c3cc(N)cc(C(F)(F)F)c3)c2cc1C1CCN(C(=O)CCCCCC(=O)N[C@H](C(=O)N2C[C@H](O)C[C@H]2C(=O)N[C@@H](C)c2ccc(-c3scnc3C)cc2)C(C)(C)C)CC1 | 8.13
8) COc1cc2nc(C)nc(N[C@H](C)c3cc(N)cc(C(F)(F)F)c3)c2cc1C1CCN(C(=O)CCCCCCC(=O)N[C@H](C(=O)N2C[C@H](O)C[C@H]2C(=O)N[C@@H](C)c2ccc(-c3scnc3C)cc2)C(C)(C)C)CC1 | 27.1
